Measured values drawn from paper PMC2857669 for this set.

# target-or-test-system: UniProt:P09601
# Sequence (P09601 1-265 limits assumed): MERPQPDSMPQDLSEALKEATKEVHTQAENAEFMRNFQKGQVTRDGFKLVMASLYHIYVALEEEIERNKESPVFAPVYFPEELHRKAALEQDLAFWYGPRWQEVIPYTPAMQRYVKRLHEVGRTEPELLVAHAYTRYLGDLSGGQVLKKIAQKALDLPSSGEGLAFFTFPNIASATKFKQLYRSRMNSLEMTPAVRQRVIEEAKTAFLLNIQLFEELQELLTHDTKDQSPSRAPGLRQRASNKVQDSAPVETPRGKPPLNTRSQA
pIC50: −log10 of the molar value.
recorded-endpoint: pIC50

// sample [C-]#[N+]CCCC [n-butyl isocyanide] , its pIC50 was ~4.35

* * *

# test-method-notes: Solubility in aqueous solutions
# Type: physicochemical
recorded-endpoint: solubility (mM)
Number only, in mM; omit the unit.

// solubility lookup, compound = [C-]#[N+]CCCC [n-butyl isocyanide] , result: 6

* * *

Please go through the items and note down their pIC50.
# target-or-test-system: hHO-2 (Homo sapiens, UniProt P30519)
# Sequence (P30519 2-295 limits assumed): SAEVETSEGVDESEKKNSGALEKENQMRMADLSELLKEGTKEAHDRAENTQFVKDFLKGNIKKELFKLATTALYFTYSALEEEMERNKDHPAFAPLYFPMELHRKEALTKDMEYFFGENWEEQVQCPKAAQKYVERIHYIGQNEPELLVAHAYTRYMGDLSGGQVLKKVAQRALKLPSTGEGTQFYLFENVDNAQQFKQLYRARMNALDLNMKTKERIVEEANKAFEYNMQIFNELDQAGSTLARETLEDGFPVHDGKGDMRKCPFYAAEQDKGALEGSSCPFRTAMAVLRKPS
Scale explanation: pIC50 corresponds to minus log10 of a concentration expressed in moles per litre.

The molecule identified as [C-]#[N+]CCCC [n-butyl isocyanide] registered its pIC50 at 6.47

Given item [C-]#[N+]C(C)C [isopropyl isocyanide] , the value recorded as its pIC50 is 5.93

* * *

recorded-endpoint: pIC50
Scale: pIC50 equals -log10([C]), with [C] in mol/L.

Simply: [C-]#[N+]C(C)C [isopropyl isocyanide] , hHO-1 (Homo sapiens, UniProt P09601), pIC50 = 6.14

GET /values?item= [C-]#[N+]CCCC [n-butyl isocyanide] &system= hHO-1 (Homo sapiens, UniProt P09601) returns pIC50: 6.60

* * *

# target-or-test-system: UniProt:P09601
# test-method-notes: biochemical
# Assay type: binding
recorded-endpoint: Kd
Write your answer as a measured quantity: the number, then the unit.

Briefly, Kd measured for [C-]#[N+]CCCC [n-butyl isocyanide] : 17 µM

* * *

# target-or-test-system: CaHmx1 (Candida albicans)
recorded-endpoint: pKd
Lab note: report pKd as minus log10 of the concentration in molar units, number only.

Entry [C-]#[N+]C(C)C [isopropyl isocyanide] — recorded pKd = 2.42

* * *

# target-or-test-system: ferrous heme-hHO-1 (Homo sapiens, UniProt P09601)
# Sequence (P09601 1-265 limits assumed): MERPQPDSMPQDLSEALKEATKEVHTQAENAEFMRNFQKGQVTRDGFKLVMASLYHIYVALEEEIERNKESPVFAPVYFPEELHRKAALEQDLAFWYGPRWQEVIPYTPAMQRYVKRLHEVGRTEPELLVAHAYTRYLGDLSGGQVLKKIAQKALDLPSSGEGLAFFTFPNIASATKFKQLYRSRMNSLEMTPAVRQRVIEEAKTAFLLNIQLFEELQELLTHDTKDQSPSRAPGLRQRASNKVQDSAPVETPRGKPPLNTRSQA
# test-method-notes: biochemical
# Type: binding
recorded-endpoint: pKd
Units for pKd: none; it is -log10 of a concentration expressed in mol/L.

Noted for [C-]#[N+]CCCC [n-butyl isocyanide] : its pKd reads 6.92
